Items are presented alongside their recorded log10 IC50.
molecular target: UniProtKB P41148; test: Displacement of Cy3B-GM from recombinant Grp94 (unknown origin) after 24 hrs by fluorescence polarization assay
Sequence (P41148 whole entry): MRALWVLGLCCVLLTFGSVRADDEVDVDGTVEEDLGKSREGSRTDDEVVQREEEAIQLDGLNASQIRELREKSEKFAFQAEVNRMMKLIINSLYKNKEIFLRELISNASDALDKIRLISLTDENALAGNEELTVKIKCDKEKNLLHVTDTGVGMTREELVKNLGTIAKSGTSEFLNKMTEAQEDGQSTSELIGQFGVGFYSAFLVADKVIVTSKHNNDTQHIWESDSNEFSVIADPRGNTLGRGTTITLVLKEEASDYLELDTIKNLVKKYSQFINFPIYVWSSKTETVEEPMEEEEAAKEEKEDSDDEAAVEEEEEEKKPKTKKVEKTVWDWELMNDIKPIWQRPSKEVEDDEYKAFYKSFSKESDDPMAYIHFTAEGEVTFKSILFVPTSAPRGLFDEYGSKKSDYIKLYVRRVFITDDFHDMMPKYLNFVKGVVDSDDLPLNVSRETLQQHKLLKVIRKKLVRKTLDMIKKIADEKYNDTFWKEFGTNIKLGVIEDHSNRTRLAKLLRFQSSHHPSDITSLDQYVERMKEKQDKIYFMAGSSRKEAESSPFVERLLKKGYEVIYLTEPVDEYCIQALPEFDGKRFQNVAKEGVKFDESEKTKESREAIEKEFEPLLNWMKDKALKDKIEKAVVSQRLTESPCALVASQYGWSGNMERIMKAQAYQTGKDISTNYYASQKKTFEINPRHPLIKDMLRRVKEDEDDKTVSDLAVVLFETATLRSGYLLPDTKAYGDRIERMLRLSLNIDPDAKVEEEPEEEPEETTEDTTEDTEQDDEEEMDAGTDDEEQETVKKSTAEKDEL
Hello, just confirming the data are log10 of IC50 with units of nM.

QUERY: Write log10 IC50 of CCCC(C)n1c(Sc2cc(Cl)cc(Cl)c2)nc2c(N)ncnc21 (stereo not drawn) ; system used: UniProtKB P41148
RESULT: 4.16

* * *

assay: Plasma concentration in nu/nu athymic mouse xenografted with human MDA-MB-468 cells at 75 mg/kg, ip measured at 2 hrs by LC-MS/MS analysis; type: ADME, organism-based; parameters: dose 75 mg/kg, route intraperitoneal
Readout Kind: concentration at 2 h (µM)
Respond with the bare value in µM.

QUERY: State its concentration at 2 h for this compound: CC(C)NCCCn1c(Sc2cc(Cl)cc(Cl)c2)nc2c(N)ncnc21
RESULT: 100

Just for reference, ChEMBL document CHEMBL3425404 is where these values come from.
